target_under_test: T1, biotinylated hTfR1 (Acro Bio p/n TFR-H82E5) (human, UniProt P02786 89-760, biotinylated; site not stated)
T1 construct: Bought reagent of the BLI assay
experiment: BLI, Octet RH16, biotinylated TfR1 on streptavidin sensor; Fab-siRNA conjugate
readout_label: koff (s⁻¹)
Return type: number; implicit unit s⁻¹.

Fab0061-siRNA conjugate (Fab, V domains shown, siRNA-linker on a reduced cysteine; chain and residue not stated, also called Fab0061 (BLI conjugate columns)) VH: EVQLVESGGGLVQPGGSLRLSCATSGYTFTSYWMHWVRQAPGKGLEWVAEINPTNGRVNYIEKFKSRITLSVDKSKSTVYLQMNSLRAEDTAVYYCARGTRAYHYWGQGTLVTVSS VL: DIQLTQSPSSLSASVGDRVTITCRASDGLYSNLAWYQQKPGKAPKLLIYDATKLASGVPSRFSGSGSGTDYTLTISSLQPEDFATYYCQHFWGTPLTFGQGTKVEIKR :: 0.000527

Query: Could you share which koff value was measured for Fab0063-siRNA conjugate (Fab, V domains shown, siRNA-linker on a reduced cysteine; chain and residue not stated, also called Fab0063 (BLI conjugate columns)) VH: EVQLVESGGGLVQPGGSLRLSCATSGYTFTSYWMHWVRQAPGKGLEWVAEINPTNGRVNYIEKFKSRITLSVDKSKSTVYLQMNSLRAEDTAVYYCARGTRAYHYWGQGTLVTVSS VL: DIQLTQSPSSLSASVGDRVTITCRASDGLYSNLAWYQQKPGKAPKLLIYDATRLASGVPSRFSGSGSGTDYTLTISSLQPEDFATYYCQHFWGTPLTFGQGTKVEIKR ?
Response: 0.000775

Query: Repeat with Fab0071-siRNA conjugate (Fab, V domains shown, siRNA-linker on a reduced cysteine; chain and residue not stated, also called Fab0071 (BLI conjugate columns)) VH: EVQLVESGGGLVQPGGSLRLSCATSGYTFNSYWMHWVRQAPGKGLEWVAEINPTNGRTNYIEKFKSRITLSVDKSKSTVYLQMNSLRAEDTAVYYCARGTRAYHYWGQGTLVTVSS VL: DIQLTQSPSSLSASVGDRVTITCRASDGLYSNLAWYQQKPGKAPKLLIYDARNLASGVPSRFSGSGSGTDYTLTISSLQPEDFATYYCQHFWGTPLTFGQGTKVEIKR
Response: 0.000716

Query: Repeat with Fab0068-siRNA conjugate (Fab, V domains shown, siRNA-linker on a reduced cysteine; chain and residue not stated, also called Fab0068 (BLI conjugate columns)) VH: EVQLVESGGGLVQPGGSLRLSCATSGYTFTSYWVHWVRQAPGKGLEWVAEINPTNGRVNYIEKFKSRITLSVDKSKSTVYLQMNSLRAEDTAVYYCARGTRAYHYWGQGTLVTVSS VL: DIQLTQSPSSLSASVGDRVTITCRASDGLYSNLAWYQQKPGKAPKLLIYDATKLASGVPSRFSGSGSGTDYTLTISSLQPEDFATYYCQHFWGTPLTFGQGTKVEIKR
Response: 0.000432

Query: Repeat with Fab0067-siRNA conjugate (Fab, V domains shown, siRNA-linker on a reduced cysteine; chain and residue not stated, also called Fab0067 (BLI conjugate columns)) VH: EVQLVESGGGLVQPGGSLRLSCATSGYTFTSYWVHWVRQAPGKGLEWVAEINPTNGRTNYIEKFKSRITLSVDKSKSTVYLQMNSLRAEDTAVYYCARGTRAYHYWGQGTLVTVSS VL: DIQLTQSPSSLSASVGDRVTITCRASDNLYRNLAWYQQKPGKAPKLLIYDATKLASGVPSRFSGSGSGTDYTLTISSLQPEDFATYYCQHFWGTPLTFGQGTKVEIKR
Response: 0.000167

Query: Repeat with Fab0064-siRNA conjugate (Fab, V domains shown, siRNA-linker on a reduced cysteine; chain and residue not stated, also called Fab0064 (BLI conjugate columns)) VH: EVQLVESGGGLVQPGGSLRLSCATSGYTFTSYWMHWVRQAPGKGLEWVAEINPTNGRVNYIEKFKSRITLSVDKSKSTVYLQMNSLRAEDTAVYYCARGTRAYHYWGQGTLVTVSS VL: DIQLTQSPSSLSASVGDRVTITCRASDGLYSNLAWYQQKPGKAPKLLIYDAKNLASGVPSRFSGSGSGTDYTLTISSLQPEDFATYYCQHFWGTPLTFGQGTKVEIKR
Response: 0.000393

Query: Repeat with Fab0066-siRNA conjugate (Fab, V domains shown, siRNA-linker on a reduced cysteine; chain and residue not stated, also called Fab0066 (BLI conjugate columns)) VH: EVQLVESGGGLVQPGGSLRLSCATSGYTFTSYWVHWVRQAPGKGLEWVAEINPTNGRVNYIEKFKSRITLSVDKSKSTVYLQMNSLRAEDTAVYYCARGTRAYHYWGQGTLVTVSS VL: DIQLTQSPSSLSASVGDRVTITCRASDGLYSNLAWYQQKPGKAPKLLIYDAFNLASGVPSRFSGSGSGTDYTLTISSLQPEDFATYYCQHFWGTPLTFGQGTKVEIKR
Response: 0.000469

Query: Repeat with Fab0070-siRNA conjugate (Fab, V domains shown, siRNA-linker on a reduced cysteine; chain and residue not stated, also called Fab0070 (BLI conjugate columns)) VH: EVQLVESGGGLVQPGGSLRLSCATSGFTFTSYWMHWVRQAPGKGLEWVAEINPTNGRTNYIEKFKSRITLSVDKSKSTVYLQMNSLRAEDTAVYYCARGTRAYHYWGQGTLVTVSS VL: DIQLTQSPSSLSASVGDRVTITCRASDKLYSNLAWYQQKPGKAPKLLIYDATLLASGVPSRFSGSGSGTDYTLTISSLQPEDFATYYCQHFWGTPLTFGQGTKVEIKR
Response: 0.000974

Query: Repeat with Fab0065-siRNA conjugate (Fab, V domains shown, siRNA-linker on a reduced cysteine; chain and residue not stated, also called Fab0065 (BLI conjugate columns)) VH: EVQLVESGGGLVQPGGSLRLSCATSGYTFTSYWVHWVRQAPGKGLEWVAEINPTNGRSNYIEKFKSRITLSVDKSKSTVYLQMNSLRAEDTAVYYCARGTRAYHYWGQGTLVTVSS VL: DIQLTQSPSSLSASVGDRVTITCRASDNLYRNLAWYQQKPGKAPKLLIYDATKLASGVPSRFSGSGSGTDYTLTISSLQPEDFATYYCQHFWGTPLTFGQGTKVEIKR
Response: 0.00082

Query: Repeat with Fab0069-siRNA conjugate (Fab, V domains shown, siRNA-linker on a reduced cysteine; chain and residue not stated, also called Fab0069 (BLI conjugate columns)) VH: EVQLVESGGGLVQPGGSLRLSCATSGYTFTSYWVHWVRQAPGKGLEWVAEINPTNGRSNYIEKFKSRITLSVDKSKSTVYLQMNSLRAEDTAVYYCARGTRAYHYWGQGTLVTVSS VL: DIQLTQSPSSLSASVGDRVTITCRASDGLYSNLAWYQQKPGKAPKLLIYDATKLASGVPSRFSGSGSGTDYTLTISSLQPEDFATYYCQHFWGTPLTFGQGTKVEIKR
Response: 0.00164

Query: Repeat with Fab0074-siRNA conjugate (Fab, V domains shown, siRNA-linker on a reduced cysteine; chain and residue not stated, also called Fab0074 (BLI conjugate columns)) VH: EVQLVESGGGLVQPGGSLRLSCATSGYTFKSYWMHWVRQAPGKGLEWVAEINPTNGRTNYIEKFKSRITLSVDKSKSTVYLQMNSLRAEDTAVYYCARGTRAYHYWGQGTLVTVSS VL: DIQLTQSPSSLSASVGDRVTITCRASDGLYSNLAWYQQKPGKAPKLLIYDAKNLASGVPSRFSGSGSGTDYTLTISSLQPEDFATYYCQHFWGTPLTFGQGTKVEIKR
Response: 0.000793
